- Protocol Description: Cell toxicity (CC50) in the HepG2 cell line, CellTiter-Glo
- Type: cell-based, human
- Test Conditions: human, HepG2 cells; HepG2 cell line, 24 h, ATP luminescence; compound from screened library; read-out: HepG2 CC50 Mean
Recorded Endpoint: CC50 at 24 h

# annotated cases, reported CC50 at 24 h shown
{"columns": ["Molecule", "CC50 at 24 h"],
 "data": [
  ["COc1cc(O)c(C(=O)/C=C/c2ccc(O)c(OC)c2)c(OC)c1", "106 µM"],
  ["C=C1C(=O)O[C@H]2C[C@@H]1[C@@H](OC(C)=O)C/C(C)=C/CC/C(C)=C\\CC[C@@]2(C)O [Crassin]", "51.6 µM"],
  ["CCN(CC)CCOc1ccc2c(c1)C(=O)c1cc(OCCN(CC)CC)ccc1-2 [Tilorone]", "46.8 µM"]
]}

[ask] Tell me the measured CC50 at 24 h of COc1ccc(-c2cc(=O)c3cc(OC)ccc3o2)cc1 [6,4'-dimethoxyflavone] , please.
[reply] 95 µM

[ask] Tell me the measured CC50 at 24 h of [H]/N=C(\N/C(=N/[H])NCCCCCCNC(=N)NC(=N)Nc1ccc(Cl)cc1)Nc1ccc(Cl)cc1 [Chlorhexidine] , please.
[reply] 60.5 µM

[ask] Tell me the measured CC50 at 24 h of CN(C)CC1CCC2=C(C1=O)C(c1ccc(Cl)c(Cl)c1)C1=C(CCC(CN(C)C)C1=O)O2 (stereo not drawn) , please.
[reply] 49.8 µM
